Experiment: MTT cytotoxicity assay
Format: cell-based, human
Conditions: human, HCEC (human corneal epithelial) cells
TEST_READOUT: viability at 96 h, 2 % (%)
The answer is to be given in %; state only the numeric part.

Prompt: For the molecule CC(=O)Nc1nnc(S(N)(=O)=O)s1 [AAZ, acetazolamide] , give its reported viability at 96 h, 2 %.
Completion: 10

###

Assay: MTT cytotoxicity assay
Format: cell-based, human
Settings: human, HCEC (human corneal epithelial) cells
For each entry below, report its viability at 96 h, 1 % value.
The answer is to be given in %; state only the numeric part.

Prompt: For the compound CCN[C@H]1CN(CCCOC)S(=O)(=O)c2sc(S(N)(=O)=O)cc21 [BRZ, brinzolamide] , give its reported viability at 96 h, 1 %.
Completion: 40

Prompt: For the compound CC(=O)Nc1nnc(S(N)(=O)=O)s1 [AAZ, acetazolamide] , give its reported viability at 96 h, 1 %.
Completion: 80
